From: patent US11339144B2

- SYSTEM TESTED: HA-GST-Rheb (GTP-γ-S loaded) activating mTORC1 (Homo sapiens (Human))
- TEST NAME: Rheb-dependent in vitro kinase assay (Rheb-IVK; LanthaScreen or Western readout)
- Format: biochemical
- CONDITION SET: Rheb-dependent in vitro kinase assay; read-out: IVK IC50
Reported IC50 values are given for each entry in this list.

c1ccc(Oc2cccc3[nH]ccc23)cc1 [I-296, 4-phenoxy-1H-indole]	100 to 300 µM
CN(C)C(=O)c1ccc(Cn2c(C(=O)O)cc3c(-c4ccccc4)cc(Sc4ccc(Cl)c(Cl)c4)cc32)cc1 [I-8]	< 10 µM
Cn1c(CO)cc2c(Oc3cccc(F)c3)cccc21 [I-262]	> 100 µM
OCc1nc2c(OC[C@H]3CCCC[C@@H]3O)c(Cl)c(Cl)cc2n1Cc1nc[nH]n1 [I-392]	> 100 µM
OCc1nc2cc(OCc3cccc(Cl)c3)c(Cl)cc2[nH]1 [I-478]	300 to 800 µM

Q. Reported IC50 for CC(C)(C)OC(=O)N1CCN(C(=O)c2ccc(Cn3c(C(=O)O)cc4c(Br)cc(Oc5ccccc5)cc43)cc2)CC1 [I-62] : what is it?
A. > 100 µM

Q. Reported IC50 for NC(=O)Cn1c(CO)nc2cc(Cl)c(OCc3ccccc3)cc21 [I-476] : what is it?
A. > 100 µM

* * *

- SYSTEM TESTED: HA-GST-Rheb (GTP-γ-S loaded) activating mTORC1 (Homo sapiens (Human))
- TEST NAME: Rheb-dependent in vitro kinase assay (Rheb-IVK; LanthaScreen or Western readout)
- Type: biochemical
- CONDITION SET: Rheb-dependent in vitro kinase assay; read-out: IVK IC50
QUANTITY NAME: IC50

Please review the following examples before continuing.
O=C(O)c1ccc(Cn2c(-c3ccncc3)nc3cc(Cl)c(Cl)cc32)cc1	10 to 100 µM
CCn1c(CO)nc2c(Cl)cc(OCc3ccccc3)cc21	> 100 µM

Q. Could you share what IC50 was measured for `O=C(O)c1cc2c(Br)cc(Oc3ccccc3)cc2n1Cc1ccc(C(=O)N(CCO)CCO)cc1` , tested on HA-GST-Rheb (GTP-γ-S loaded) activating mTORC1 (Homo sapiens (Human))?
A. 10 to 100 µM

Q. Could you share what IC50 was measured for `Cc1cc(Oc2ccccc2)cc2c1cc(CO)n2C` , tested on HA-GST-Rheb (GTP-γ-S loaded) activating mTORC1 (Homo sapiens (Human))?
A. > 100 µM

Q. Could you share what IC50 was measured for `CCn1c(CO)nc2cc(Cl)c(OCc3ccccc3F)cc21` , tested on HA-GST-Rheb (GTP-γ-S loaded) activating mTORC1 (Homo sapiens (Human))?
A. > 100 µM

Q. Could you share what IC50 was measured for `O=C(NCC1CCOCC1)c1cc2c(Sc3ccc(Cl)cc3)cc(Cl)cc2[nH]1` , tested on HA-GST-Rheb (GTP-γ-S loaded) activating mTORC1 (Homo sapiens (Human))?
A. > 100 µM

Q. Could you share what IC50 was measured for `CN1CCC(CNC(=O)c2cc3c(Br)cc(Sc4ccc5ccccc5c4)cc3n2Cc2ccc(C(=O)N(C)C)cc2)CC1` , tested on HA-GST-Rheb (GTP-γ-S loaded) activating mTORC1 (Homo sapiens (Human))?
A. > 100 µM

Q. Could you share what IC50 was measured for `OCc1cc2c(Cl)cc(Oc3ccccc3)cc2n1Cc1nc[nH]n1` , tested on HA-GST-Rheb (GTP-γ-S loaded) activating mTORC1 (Homo sapiens (Human))?
A. > 100 µM

Q. Could you share what IC50 was measured for `CN(C)C(=O)c1ccc(Cn2c(C(=O)O)cc3c(Cl)cc(Sc4ccc(Cl)c(Cl)c4)cc32)cc1` , tested on HA-GST-Rheb (GTP-γ-S loaded) activating mTORC1 (Homo sapiens (Human))?
A. < 10 µM

* * *

Reported IC50 values are given for each entry in this list.
- SYSTEM TESTED: HA-GST-Rheb (GTP-γ-S loaded) activating mTORC1 (Homo sapiens (Human))
- TEST NAME: Rheb-dependent in vitro kinase assay (Rheb-IVK; LanthaScreen or Western readout)
- Assay type: biochemical
- CONDITION SET: Rheb-dependent in vitro kinase assay; read-out: IVK IC50

Please review the following examples before continuing.
O=C(O)c1cc2c(Br)cc(Sc3ccc(Cl)c(Cl)c3)cc2[nH]1	< 10 µM
Cc1cc2c(Sc3ccc(Cl)cc3)cccc2[nH]1	> 100 µM
Cn1c(CO)cc2c(Oc3ccccc3)cc(Cl)cc21	> 100 µM

Q. Could you share what IC50 was measured for `Nc1cc(CCOc2c(Cl)c(Cl)cc3[nH]c(CO)nc23)ccn1` , tested on HA-GST-Rheb (GTP-γ-S loaded) activating mTORC1 (Homo sapiens (Human))?
A. 100 to 300 µM

Q. Could you share what IC50 was measured for `N#CCc1nc2c(OCc3ccccc3)c(Cl)ccc2[nH]1` , tested on HA-GST-Rheb (GTP-γ-S loaded) activating mTORC1 (Homo sapiens (Human))?
A. > 100 µM

* * *

- SYSTEM TESTED: HA-GST-Rheb (GTP-γ-S loaded) activating mTORC1 (Homo sapiens (Human), UniProt Q15382)
- Sequence (Q15382 1-181): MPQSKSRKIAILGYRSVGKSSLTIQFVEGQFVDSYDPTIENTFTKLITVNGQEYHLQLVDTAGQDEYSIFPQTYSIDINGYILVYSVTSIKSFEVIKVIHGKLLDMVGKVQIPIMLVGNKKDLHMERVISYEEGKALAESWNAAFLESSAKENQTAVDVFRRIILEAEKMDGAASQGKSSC
- TEST NAME: Rheb-dependent in vitro kinase assay (Rheb-IVK; LanthaScreen or Western readout)
- Format: biochemical
- CONDITION SET: Rheb-dependent in vitro kinase assay; read-out: IVK IC50
QUANTITY NAME: IC50

OCc1nc2c(OCC3CCCN3)c(Cl)c(Cl)cc2[nH]1 (stereo not drawn)	> 100 µM

Q. Reported IC50 for `Clc1ccc(Cc2cccc3[nH]ccc23)cc1` : what is it?
A. > 100 µM

Q. Reported IC50 for `O=C(O)c1ccc(-c2nc3cc(Cl)c(Cl)cc3[nH]2)cc1` : what is it?
A. 100 to 300 µM

Q. Reported IC50 for `Nc1ccnc(COc2c(Cl)c(Cl)cc3[nH]c(CO)nc23)n1` : what is it?
A. > 100 µM

Q. Reported IC50 for `Cc1nc2c(OCc3ccc(Cl)cc3)c(Cl)c(Cl)cc2[nH]1` : what is it?
A. > 100 µM

Q. Reported IC50 for `O=S(=O)(c1cccc(Cl)c1)c1cccc2[nH]ccc12` : what is it?
A. > 100 µM

* * *

- SYSTEM TESTED: HA-GST-Rheb (GTP-γ-S loaded) activating mTORC1 (Homo sapiens (Human), UniProt Q15382)
- TEST NAME: Rheb-dependent in vitro kinase assay (Rheb-IVK; LanthaScreen or Western readout)
- Type: biochemical
- CONDITION SET: Rheb-dependent in vitro kinase assay; read-out: IVK IC50
pIC50: −log10 of the molar value.
QUANTITY NAME: pIC50

OCc1cc2c(Oc3ccc(C4CCCCC4)cc3)cc(Cl)cc2[nH]1	> 5.00
N#CCc1nc2cc(OCc3ccccc3)c(Cl)cc2[nH]1	< 4.00
CN(C)C(=O)c1ccc(Cn2c(C(=O)O)cc3c(Br)cc(Sc4cccc(OC(F)(F)F)c4)cc32)cc1	> 5.00
Cn1c(CO)cc2c(Oc3ccc(F)cc3)cccc21	< 4.00
CCn1c(CO)nc2cc(Oc3ccccc3)c(Cl)cc21	< 4.00
CN1CCC(CCNC(=O)c2cc3c(Sc4ccc(Cl)cc4Cl)cc(Cl)c(Cl)c3[nH]2)CC1	< 4.00
COCc1cc2c(Br)cc(Sc3ccc(Cl)c(Cl)c3)cc2n1Cc1ccc(C(=O)N(C)C)cc1	< 4.00
Cn1c(CO)nc2cc(OCc3ccccc3)c(Cl)cc21	< 5.52
CN(CCO)C(=O)c1ccc(Cn2c(C(=O)O)cc3c(Br)cc(Oc4ccccc4)cc32)cc1	4.00 to 5.00
COc1ccc(Sc2cc(Cl)cc3[nH]c(C(=O)O)cc23)cc1OC	3.52 to 4.00

Q. Could you share what pIC50 was measured for `OCc1nc2cc(Cl)c(SCc3ccc(Cl)cc3Cl)cc2[nH]1` , tested on HA-GST-Rheb (GTP-γ-S loaded) activating mTORC1 (Homo sapiens (Human), UniProt Q15382)?
A. 3.52 to 4.00

Q. Could you share what pIC50 was measured for `Brc1cc(Oc2ccccc2)cc2[nH]ccc12` , tested on HA-GST-Rheb (GTP-γ-S loaded) activating mTORC1 (Homo sapiens (Human), UniProt Q15382)?
A. 4.00 to 5.00

Q. Could you share what pIC50 was measured for `CN1CC(NC(=O)c2cc3c(-c4cc(Cl)cc(Cl)c4)cc(Cl)cc3[nH]2)C1` , tested on HA-GST-Rheb (GTP-γ-S loaded) activating mTORC1 (Homo sapiens (Human), UniProt Q15382)?
A. < 4.00

Q. Could you share what pIC50 was measured for `OCc1cc2c(Br)cc(Oc3ccccc3)cc2[nH]1` , tested on HA-GST-Rheb (GTP-γ-S loaded) activating mTORC1 (Homo sapiens (Human), UniProt Q15382)?
A. 4.00 to 5.00

Q. Could you share what pIC50 was measured for `CN1CCC(NC(=O)c2cc3c(Sc4ccc(Cl)cc4Cl)cc(Cl)cc3[nH]2)CC1` , tested on HA-GST-Rheb (GTP-γ-S loaded) activating mTORC1 (Homo sapiens (Human), UniProt Q15382)?
A. < 4.00

Q. Could you share what pIC50 was measured for OCc1nc2cc(Cl)c(Cl)c(OCC3CCNC3)c2[nH]1 (centres unmarked) , tested on HA-GST-Rheb (GTP-γ-S loaded) activating mTORC1 (Homo sapiens (Human), UniProt Q15382)?
A. < 4.00

Q. Could you share what pIC50 was measured for `CC(C)(C)c1cccc(Sc2cc(Cl)cc3[nH]c(C(=O)O)cc23)c1` , tested on HA-GST-Rheb (GTP-γ-S loaded) activating mTORC1 (Homo sapiens (Human), UniProt Q15382)?
A. > 5.00
